- Tested on: NHBE cells
- runDescription: Biolog metabolic array: substrate use by NHBE cells with or without CA09 infection
- Assay type: cell-based, human
- measurementParameters: Control (uninfected) NHBE cells, Biolog PMM2, 5 hr
observable: Substrate use, 590 nm absorbance normalized to zero hour, 5 hr
Numbers only.

INSERT INTO measurements (compound, studytarget, testvalue) VALUES
  ('OC[C@H]1O[C@@H](O[C@H]2[C@H](O)[C@@H](O)[C@H](O)O[C@@H]2CO)[C@H](O)[C@@H](O)[C@@H]1O', 'NHBE cells', 3.55);

Parameters: items (list). Returns: Substrate use, 590 nm absorbance normalized to zero hour, 5 hr for each item.
1. O=C(CO)[C@@H](O)[C@@H](O)[C@H](O)CO
2. CCCCCC(=O)O
3. CCC(=O)C(=O)O
4. OC[C@H]1O[C@H](O[C@H]2O[C@H](CO)[C@@H](O)[C@H](O)[C@H]2O)[C@H](O)[C@@H](O)[C@@H]1O
5. COC(=O)CCC(=O)O [Mono Methyl Succinate]
6. CO[C@H]1O[C@H](CO)[C@H](O)[C@H](O)[C@H]1O [a-Methyl-D-Galactoside]
7. CC(=O)N[C@H]1[C@H]([C@H](O)[C@H](O)CO)OC(O)(C(=O)O)C[C@@H]1O (stereo partly drawn)

### Response
[0.29, 1.18, 1.28, 3.48, 1.13, 1.01, 0.23]

Parameters: items (list). Returns: Substrate use, 590 nm absorbance normalized to zero hour, 5 hr for each item.
1. O[C@H]1[C@H](O)[C@@H](O)[C@H](O)[C@@H](O)[C@H]1O
2. C[C@@H]1OC(O)[C@@H](O)[C@H](O)[C@@H]1O (stereo partly drawn)
3. OC[C@@H](O)[C@@H](O[C@H]1O[C@H](CO)[C@@H](O)[C@H](O)[C@H]1O)[C@H](O)[C@@H](O)CO
4. C[C@H](O)[C@H](O)[C@@H](O)[C@@H](O)C=O

### Response
[3.07, 0.22, 3.80, 2.12]

Parameters: items (list). Returns: Substrate use, 590 nm absorbance normalized to zero hour, 5 hr for each item.
1. CC(=O)N[C@H]1C(O)O[C@H](CO)[C@@H](O)[C@@H]1O (stereo partly drawn)
2. CO[C@@H]1OC[C@@H](O)[C@H](O)[C@H]1O [b-Methyl-D-Xyloside]
3. O=C(O)C[C@@H](O)C(=O)O
4. O=P(O)(O)O[C@H]1O[C@H](CO)[C@@H](O)[C@H](O)[C@H]1O [D-Glucose-1-Phosphate]

### Response
0.40
2.08
2.63
1.12

Parameters: items (list). Returns: Substrate use, 590 nm absorbance normalized to zero hour, 5 hr for each item.
1. OC[C@H]1OC(O)[C@@H](O)[C@@H](O)[C@@H]1O (stereo partly drawn)
2. O=C(CO)[C@@H](O)[C@H](O)[C@@H](O)CO

### Response
6.64
2.79

----------
- System: NHBE cells
- runDescription: Biolog metabolic array: substrate use by NHBE cells with or without CA09 infection
- Type: cell-based, human
- measurementParameters: Virus: CA09-infected NHBE cells, MOI 1; Biolog PMM2; 4 hr
Binary classification by 590 nm absorbance normalized to zero hour (substrate use), 4 hr, with 2 as an inclusive lower bound for true (1); all other cases are false (0).

These recorded examples may help you get a feel for the data.
INSERT INTO results (compound, label) VALUES
  ('CC(=O)C(C)O (stereo not shown) [3-Hydroxy 2-Butanone]', 'true (1)'),
  ('O=C(O)CCC(=O)C(=O)O [a-Keto-Glutaric Acid]', 'false (0)');

### Prompt Can CO[C@H]1O[C@H](CO)[C@H](O)[C@H](O)[C@H]1O [a-Methyl-D-Galactoside] be said to have 590 nm absorbance normalized to zero hour (substrate use), 4 hr at or above 2?
### Response false (0)

### Prompt Can O=C(O)CC(O)(CC(=O)O)C(=O)O [Citric Acid] be said to have 590 nm absorbance normalized to zero hour (substrate use), 4 hr at or above 2?
### Response true (1)

### Prompt Can CO[C@H]1O[C@H](CO)[C@@H](O)[C@H](O)[C@@H]1O [a-Methyl-D-Mannoside] be said to have 590 nm absorbance normalized to zero hour (substrate use), 4 hr at or above 2?
### Response false (0)

### Prompt Can OC[C@H]1O[C@@H]2O[C@H]3[C@H](O)[C@@H](O)[C@@H](O[C@H]4[C@H](O)[C@@H](O)[C@@H](O[C@H]5[C@H](O)[C@@H](O)[C@@H](O[C@H]6[C@H](O)[C@@H](O)[C@@H](O[C@H]7[C@H](O)[C@@H](O)[C@@H](O[C@H]1[C@H](O)[C@H]2O)O[C@@H]7CO)O[C@@H]6CO)O[C@@H]5CO)O[C@@H]4CO)O[C@@H]3CO [a-Cyclo-dextrin] be said to have 590 nm absorbance normalized to zero hour (substrate use), 4 hr at or above 2?
### Response true (1)

### Prompt Can CO[C@@H]1OC[C@@H](O)[C@H](O)[C@H]1O [b-Methyl-D-Xyloside] be said to have 590 nm absorbance normalized to zero hour (substrate use), 4 hr at or above 2?
### Response true (1)
